# test description: CHI Log D procedure
# Type: physicochemical
# condition parameters: pH 7.4, CHI Log D
endpoint: chromatographic logD

**Query** Fill in chromatographic logD for record CC(=O)N1CCC[C@]12CC=CCCCC1(CCCC=CCCCOC(=O)N3CC[C@@](C(=O)N[C@@H](Cc4ccccc4Cl)C(=O)N[C@@H](Cc4csc5ccccc45)C(=O)N[C@H](C(N)=O)[C@@H](C)O)(C3)NC(=O)[C@H](Cc3ccccc3)NC(=O)[C@H](Cc3ccccc3)NC(=O)[C@H](C)NC(=O)[C@H](C)NC(=O)[C@H](CN(CC(=O)O)CC(F)(F)F)NC(=O)[C@H](CC(=O)O)NC1=O)NC(=O)[C@H](CC(C)(C)C)NC(=O)[C@H](CC(=O)O)NC2=O (stereo partly drawn) [I-991]
**Result** 2.7

**Query** Complete the entry with chromatographic logD for CC(=O)N1CCC[C@]12CC=CCCCC1(CCCC=CCCCCCC[C@@](C)(C(=O)N[C@@H](Cc3ccccc3)C(=O)N[C@@H](Cc3csc4ccccc34)C(=O)N[C@@H](CCC(N)=O)C(N)=O)NC(=O)[C@H](CC(N)=O)NC(=O)[C@H](Cc3ccc(N)cc3)NC(=O)[C@H](C)NC(=O)[C@H](C)NC(=O)[C@H](CCC(=O)O)NC(=O)[C@H](CC(=O)O)NC1=O)NC(=O)[C@H](C)NC(=O)[C@H](CC(=O)O)NC2=O (stereo partly drawn) [I-461]
**Result** 1.94

**Query** Indicate the recorded chromatographic logD value for this molecule: CC(=O)N1CCC[C@]12CC=CCCCC1(CCCC=CCCCCCC[C@@](C)(C(=O)N[C@@H](Cc3ccccc3)C(=O)N[C@@H](Cc3csc4ccccc34)C(=O)N[C@@H](CCC(N)=O)C(N)=O)NC(=O)[C@H](C(C)C)NC(=O)[C@H](Cc3ccccc3)NC(=O)[C@H](C)NC(=O)[C@H](C)NC(=O)[C@H](Cc3ccc4ccccc4c3)NC(=O)[C@H](CC(=O)O)NC1=O)NC(=O)[C@H](C)NC(=O)[C@H](CC(=O)O)NC2=O (stereo partly drawn) [I-297]
**Result** 3.29

Each recorded value in this set is attributed to patent US20240116985A1.
